Where do these numbers come from? They come from the supplement of paper PMC10724198.

- System: Saccharomyces cerevisiae;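 further: PSI is a weighted mean of each variant's read distribution over the sorted stability bins, computed only for variants having over 10 reads in total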
- assay_protocol: protein stability index of tFT-peptide fusion in deletion strain of DAS1 (PSI (0-1 scale)); higher = more stable (slower turnover)
Measured protein stability index values are reported for all entries that follow.
Lab note: write the figure by itself, no unit.

| sequence_text | protein stability index |
| --- | --- |
| LKQLRQKMNHQN | 0.663 |
| FSMRWTFRYHVN | 0.472 |
| ARWRLGLWRGAS | 0.687 |
| RLIQPLPVQFLNK | 0.676 |
| FSMRWTFRSWVN | 0.515 |
| LKILDQKMNHQN | 0.691 |
| FSMRWTFRYWVC | 0.403 |
| HKILRQKMNHQN | 0.683 |

Prompt line: If you can, please state the reported protein stability index value of ARWRVGLWRGHS .
Response line: 0.691

Prompt line: And what about the sequence LKILRLKMNHQN ?
Response line: 0.65

Prompt line: And the next one, TSMRWTFRYWVN ?
Response line: 0.696

Prompt line: // next record RLIQPLPVAFLN
Response line: 0.552

Prompt line: // query: VRGAVGGWRLVW
Response line: 0.671

Prompt line: Try the sequence PSLAASMWRVVG
Response line: 0.73

Prompt line: Moving on to PDKRNQLIKLLN
Response line: 0.633

Prompt line: Lookup FSMRWLFRYWVN
Response line: 0.573

Prompt line: Then FHMRWTFRYWVN ?
Response line: 0.466

Prompt line: Subsequent entry: PSLAALFWRVVG
Response line: 0.674

Prompt line: Item: CTSCGYKFITNN
Response line: 0.709

Prompt line: Follow-up entry: PSLAASTWRVVG
Response line: 0.68

Prompt line: Would you mind doing FSMRWSFRYWVN as well?
Response line: 0.544

Prompt line: Entry PDKRNHLIKLLNL please
Response line: 0.665

Prompt line: Entry to check: RLIQWLPVQFLN
Response line: 0.613

Prompt line: Input LVVYLSSVACIN
Response line: 0.0579

Prompt line: And what about the sequence RLIQPLPWQFLN ?
Response line: 0.699

Prompt line: Note, next up: PPKRNHLIKLLN
Response line: 0.581

Prompt line: Also RTIQPLPVQFLN , if possible.
Response line: 0.629

Prompt line: Cool, now ARWNVGLWRGAS
Response line: 0.662

Prompt line: What do you get for CTSCEYKFRTNN ?
Response line: 0.684

Prompt line: Same for FSMRWTFRFWVN
Response line: 0.419
